- experiment: Stability in aqueous solution (percent retention)
- Format: physicochemical
- reportedConditions: 5% dextrose in water, 2.20 mg/ml, 5° C., 24 hrs
Structures can show the parent of a compound that is named as a salt.
measurementType: remaining at 24 h (%)
Value expressed in %; do not type the unit.

Data point: CC1(C)S[C@@H]2[C@H](NC(=O)[C@@H](c3ccc(O)cc3)N(C3CCCCO3)C3CCCCO3)C(=O)N2[C@H]1C(=O)O (relative stereo) [Compound II, sodium salt] ; remaining at 24 h = 95

----------
- experiment: Stability in aqueous solution (percent retention)
- Format: physicochemical
- reportedConditions: 0.9% saline, 2.30 mg/ml, RT, 24 hrs
Counter-ions that a name gives are not always drawn.
measurementType: remaining at 24 h
Note to self: number, then unit, no commentary.

Briefly, remaining at 24 h measured for CC1(C)S[C@@H]2[C@H](NC(=O)[C@@H](c3ccc(O)cc3)N(C3CCCCO3)C3CCCCO3)C(=O)N2[C@H]1C(=O)O (relative stereo) [Compound II, sodium salt] : 91%

----------
- experiment: Stability in aqueous solution (percent retention)
- Format: physicochemical
- reportedConditions: 5% dextrose in water, 30 mg/ml, RT, 24 hrs
Counter-ions that a name gives are not always drawn.
measurementType: remaining at 24 h (%)
Response body: numeric value in %, unit text excluded.

remaining at 24 h reading for CC1(C)S[C@@H]2[C@H](NC(=O)[C@@H](c3ccc(O)cc3)N(C3CCCCO3)C3CCCCO3)C(=O)N2[C@H]1C(=O)O (relative stereo) [Compound II, sodium salt] : 92

----------
- experiment: Stability in aqueous solution (percent retention)
- Type: physicochemical
- reportedConditions: 5% dextrose in water, 2.10 mg/ml, RT, 48 hrs
Counter-ions that a name gives are not always drawn.
measurementType: remaining at 48 h (%)
Your answer is read as %, so omit the unit and give the number.

For reference, reported remaining at 48 h for CC1(C)S[C@@H]2[C@H](NC(=O)[C@@H](c3ccc(O)cc3)N(C3CCCCO3)C3CCCCO3)C(=O)N2[C@H]1C(=O)O (relative stereo) [Compound II, sodium salt] stands at 71

----------
- experiment: Stability in aqueous solution (percent retention)
- Type: physicochemical
- reportedConditions: 5% dextrose in water, 33 mg/ml, 5° C., 48 hrs
Where a name gives a salt, the structure may show the parent alone.
measurementType: remaining at 48 h (%)
Provide only the numeric value, understood in %.

The molecule CC1(C)S[C@@H]2[C@H](NC(=O)[C@@H](c3ccc(O)cc3)N(C3CCCCO3)C3CCCCO3)C(=O)N2[C@H]1C(=O)O (relative stereo) [Compound II, sodium salt] showed remaining at 48 h equal to 84

----------
- experiment: Stability in aqueous solution (percent retention)
- Assay type: physicochemical
- reportedConditions: 0.9% saline, 2.30 mg/ml, RT, 6 hrs
- Experimental: The stability of the compound was determined in 0.9% saline solution, 5% aqueous dextrose solution and in water, both at room temperature and/or 5° C.
Where a name gives a salt, the structure may show the parent alone.
measurementType: remaining at 6 h
The answer consists of two parts: a number and, after it, its unit.

Input CC1(C)S[C@@H]2[C@H](NC(=O)[C@@H](c3ccc(O)cc3)N(C3CCCCO3)C3CCCCO3)C(=O)N2[C@H]1C(=O)O (relative stereo) [Compound II, sodium salt] . Output remaining at 6 h: 96%

----------
- experiment: Acute toxicity in mice
- reportedConditions: mouse, in vivo, po, LD50, mice
measurementType: LD50

Data point: CC1(C)S[C@@H]2[C@H](NC(=O)[C@H](N)c3ccc(O)cc3)C(=O)N2[C@H]1C(=O)O [Amoxicillin, amoxicillin, reference compound] ; LD50 = > 10000 mg/kg

----------
- experiment: Stability in aqueous solution (percent retention)
- Assay type: physicochemical
- reportedConditions: 0.9% saline, 2.20 mg/ml, 5° C., 24 hrs
- Protocol: The stability of the compound was determined in 0.9% saline solution, 5% aqueous dextrose solution and in water, both at room temperature and/or 5° C.
Where a name gives a salt, the structure may show the parent alone.
measurementType: remaining at 24 h (%)
Write the value in % as a bare number.

Measured remaining at 24 h of CC1(C)S[C@@H]2[C@H](NC(=O)[C@@H](c3ccc(O)cc3)N(C3CCCCO3)C3CCCCO3)C(=O)N2[C@H]1C(=O)O (relative stereo) [Compound II, sodium salt] : 100

----------
- experiment: Stability in aqueous solution (percent retention)
- Assay type: physicochemical
- reportedConditions: 5% dextrose in water, 31 mg/ml, RT, 6 hrs
- Description: The stability of the compound was determined in 0.9% saline solution, 5% aqueous dextrose solution and in water, both at room temperature and/or 5° C.
Structures can show the parent of a compound that is named as a salt.
measurementType: remaining at 6 h
Put your answer as a value accompanied by its unit after it.

Form: molecule = CC1(C)S[C@@H]2[C@H](NC(=O)[C@@H](c3ccc(O)cc3)N(C3CCCCO3)C3CCCCO3)C(=O)N2[C@H]1C(=O)O (relative stereo) [Compound II, sodium salt] ; remaining at 6 h = 100%

----------
- experiment: Stability in aqueous solution (percent retention)
- Type: physicochemical
- reportedConditions: 5% dextrose in water, 30 mg/ml, RT, 6 hrs
Counter-ions that a name gives are not always drawn.
measurementType: remaining at 6 h (%)
Report the figure in % without appending any unit label.

Summary for this compound, CC1(C)S[C@@H]2[C@H](NC(=O)[C@@H](c3ccc(O)cc3)N(C3CCCCO3)C3CCCCO3)C(=O)N2[C@H]1C(=O)O (relative stereo) [Compound II, sodium salt] : remaining at 6 h is 96

----------
- experiment: Acute toxicity in mice
- reportedConditions: mouse, in vivo, ip, LD50, mice
measurementType: LD50 (mg/kg)
Just the number in mg/kg, nothing appended.

LD50 recorded for this molecule, CC1(C)S[C@@H]2[C@H](NC(=O)[C@H](N)c3ccc(O)cc3)C(=O)N2[C@H]1C(=O)O [Amoxicillin, amoxicillin, reference compound] , is 3140

----------
- experiment: in vivo
- reportedConditions: mouse, po
Structures can show the parent of a compound that is named as a salt.
Entries and their LD50 values follow.
Entry rule: numbers only, all in mg/kg.

See these solved cases before continuing.
{"columns": ["compound", "unitsSymbol", "LD50"],
 "data": [
  ["CC1(C)S[C@@H]2[C@H](NC(=O)[C@H](NC3CCCS3)c3ccc(O)cc3)C(=O)N2[C@H]1C(=O)O (relative stereo) [Compound III, sodium salt]", "mg/kg", 558],
  ["CCC1CC(F)C(N(C2OC(CC)CC2F)[C@@H](C(=O)N[C@@H]2C(=O)N3[C@@H]2SC(C)(C)[C@@H]3C(=O)O)c2ccc(O)cc2)O1 (relative stereo) [Compound IV, sodium salt]", "mg/kg", 3960]
]}

Okay, next one:
Documented LD50 of CC1(C)S[C@@H]2[C@H](NC(=O)[C@H](NC3CCCO3)c3ccc(O)cc3)C(=O)N2[C@H]1C(=O)O (relative stereo) [Compound I, sodium salt] : 9100

----------
- experiment: Stability in aqueous solution (percent retention)
- Type: physicochemical
- reportedConditions: 0.9% saline, 2.25 mg/ml, RT, 6 hrs
Counter-ions that a name gives are not always drawn.
measurementType: remaining at 6 h
Provide a numeric answer, followed by its unit.

So, CC1(C)S[C@@H]2[C@H](NC(=O)[C@@H](c3ccc(O)cc3)N(C3CCCCO3)C3CCCCO3)C(=O)N2[C@H]1C(=O)O (relative stereo) [Compound II, sodium salt] ? Its remaining at 6 h was 96%

----------
- experiment: Stability in aqueous solution (percent retention)
- Assay type: physicochemical
- reportedConditions: 0.9% saline, 2.20 mg/ml, 5° C., 48 hrs
Where a name gives a salt, the structure may show the parent alone.
measurementType: remaining at 48 h (%)
Reply with just the number (in %).

Entry CC1(C)S[C@@H]2[C@H](NC(=O)[C@@H](c3ccc(O)cc3)N(C3CCCCO3)C3CCCCO3)C(=O)N2[C@H]1C(=O)O (relative stereo) [Compound II, sodium salt] , remaining at 48 h reported as 100

----------
- experiment: Stability in aqueous solution (percent retention)
- Format: physicochemical
- reportedConditions: 5% dextrose in water, 30 mg/ml, RT, 48 hrs
Where a name gives a salt, the structure may show the parent alone.
measurementType: remaining at 48 h

So, CC1(C)S[C@@H]2[C@H](NC(=O)[C@@H](c3ccc(O)cc3)N(C3CCCCO3)C3CCCCO3)C(=O)N2[C@H]1C(=O)O (relative stereo) [Compound II, sodium salt] ? Its remaining at 48 h was 83%

----------
Below, each entry is listed with its recorded MBC.
- System: Streptococcus pyogenes
- experiment: In vitro activity (MIC/MBC), Streptococcus pyogenes
- Type: cell-based
- reportedConditions: MBC, read-out: Minimum Inhibitory Concentration (MBC)
Where a name gives a salt, the structure may show the parent alone.
Kindly provide the numeric value in µg/mL only, without the unit symbol.

Input CC1(C)S[C@@H]2[C@H](NC(=O)[C@H](NC3CCCO3)c3ccc(O)cc3)C(=O)N2[C@H]1C(=O)O (relative stereo) [Compound I, sodium salt] . Output MBC: 2.84

Memo: CC1(C)S[C@@H]2[C@H](NC(=O)[C@@H](c3ccc(O)cc3)N(C3CCCCO3)C3CCCCO3)C(=O)N2[C@H]1C(=O)O (relative stereo) [Compound II, sodium salt] , reported MBC: 6.31

Provenance of the data: patent US4317775A
